Test system: Escherichia coli (ATCC25922) or Staphylococcus aureus (ATCC25923)
Assay: Antibacterial MIC, microdilution method in Mueller-Hinton medium
Type: cell-based
Details: Escherichia coli, 18 h, read-out: Potency (MIC)
Endpoint Label: MIC

1. COc1ccc(C(=O)Nc2ccc(Nc3nc(N4C[C@H](N)C[C@H](N)C4)nc(N4C[C@H](N)C[C@H](N)C4)n3)cc2)c(O)c1 ... > 64 µg/mL
2. Cc1cc(Nc2nc(N3C[C@H](N)C[C@H](N)C3)nc(N3C[C@H](N)C[C@H](N)C3)n2)ccc1NC(=O)c1cccc(O)c1O ... < 16 µg/mL
3. NC[C@@H]1C[C@H](N)CN1c1nc(Nc2ccc(NC(=O)c3ccc(Cl)cc3O)c(O)c2)nc(N2C[C@H](N)C[C@H](N)C2)n1 ... < 16 µg/mL

* * *

System: Escherichia coli (ATCC25922) or Staphylococcus aureus (ATCC25923)
Experiment: Antibacterial MIC, microdilution method in Mueller-Hinton medium
Format: cell-based
Conditions: Escherichia coli, 18 h, MIC in E. coli or S. aureus; two-fold serial dilutions 64 to 0.5 μg/ml in duplicate; 18 hours of incubation at 35° C.; read-out: Potency (MIC)
# Lookup of reported MIC keyed by entry
Endpoint Label: MIC

1. Cl.O=C(CC(O)c1ccc(Nc2nc(N3CCCCC3)nc(N3CCCCC3)n2)cc1)Nc1ccccc1C(F)(F)F (stereo not drawn) ... < 64 µg/mL
2. COc1ccc(Nc2ccc(Nc3nc(N4C[C@H](N)C[C@H](N)C4)nc(N4C[C@H](N)C[C@H](N)C4)n3)cc2)cc1 ... < 64 µg/mL
3. COC(=O)CC(=O)Nc1ccc(Nc2nc(N3C[C@H](N)C[C@H](N)C3)nc(N3C[C@H](N)C[C@H](N)C3)n2)cc1O ... > 64 µg/mL
4. CC(=O)c1ccc(Nc2nc(N3C[C@H](N)C[C@H](N)C3)nc(N3C[C@@H](N)C[C@@H](O)C3)n2)cc1 ... > 64 µg/mL
5. COc1nc(Nc2ccc(C(=O)Oc3ccccc3)c(O)c2)nc(N2CCCCC2)n1.Cl ... < 16 µg/mL
6. Cl.O=C(Nc1ccccc1Cl)c1ccc(Nc2nc(N3CCCCC3)nc(N3CCCCC3)n2)cc1O ... < 64 µg/mL
7. Cc1ccc(C(=O)Nc2ccc(Nc3nc(N4CCCCC4)nc(N4CCC(N5CCCC5)CC4)n3)cc2O)cc1 ... < 64 µg/mL
8. Cl.O=C(CC(=O)c1ccc(Nc2nc(N3CCCCC3)nc(N3CCCCC3)n2)cc1)Nc1ccc(-c2ccccc2)cc1 ... < 16 µg/mL
9. Cc1ccc(C(=O)Nc2ccc(Nc3nc(N(CCN)CCN)nc(N4CCCCC4)n3)cc2O)cc1.Cl ... < 64 µg/mL
10. Cc1ccc(C(=O)Nc2ccc(Nc3nc(N4CCCCC4)nc(N4CCCC4)n3)cc2O)cc1.Cl [drawing 244] ... > 64 µg/mL
11. COC(=O)c1c(N2C[C@H](N)C[C@H](N)C2)nc2ccccc2c1N1C[C@H](N)C[C@H](N)C1.Cl ... > 64 µg/mL
12. CC(C)C(=O)Nc1ccc(Nc2nc(N3C[C@H](N)C[C@H](N)C3)nc(N3C[C@H](N)C[C@H](N)C3)n2)cc1O ... > 64 µg/mL
13. N[C@@H]1C[C@H](N)CN(c2nc(Nc3ccc(NC(=O)c4cc5cccc(O)c5cc4O)cc3)nc(N3C[C@H](N)C[C@H](N)C3)n2)C1 ... < 64 µg/mL
14. Cl.Oc1cccc2ccc(Nc3nc(N4CCCCC4)nc(N4CCCCC4)n3)nc12 ... > 64 µg/mL
15. N[C@@H]1C[C@H](N)CN(c2nc(NCCN3CCNC3=O)nc(Nc3ccc(NC(=O)c4ccc(Cl)cc4)c(O)c3)n2)C1 ... < 64 µg/mL
16. Cl.N[C@@H]1C[C@H](N)CN(c2nc(N3C[C@H](N)C[C@H](N)C3)nc(N(c3ccccc3)c3ccc(O)cc3)n2)C1 ... > 64 µg/mL
17. CC(=O)N1CCN(c2nc(Nc3ccc(S(=O)(=O)Nc4ccc5cn[nH]c5c4)cc3)nc(N3C[C@H](N)C[C@H](N)C3)n2)CC1 ... > 64 µg/mL
18. Cl.NC1C[C@H](N)CN(c2nc(Nc3ccc(Br)c4ccccc34)nc(N3C[C@H](N)C[C@H](N)C3)n2)C1 (stereo in doubt) ... < 64 µg/mL
19. Cc1cc(Nc2nc(N3CCCCC3)nc(N3CCCCC3)n2)ccc1N1C(=O)c2ccc(Cl)cc2C1=O.Cl ... < 64 µg/mL
20. Cl.O=C(CCCCC1SCC2NC(=O)NC21)Nc1ccc(Nc2nc(N3CCCCC3)nc(N3CCCCC3)n2)cc1O (stereo not drawn) ... > 64 µg/mL
21. Cl.O=C(Nc1ccc(Nc2nc(N3CCCCC3)nc(N3CCCCC3)n2)cc1Cl)c1ccc(C(F)(F)F)nc1O ... < 16 µg/mL
